# Tested on: recombinant virus from patient viral RNA (Example 9)
# assayNotes: Recombinant virus assay (MT4/MTT), patient of Example 9 (multiple nucleoside analogue RT-inhibitors)
# Format: cell-based, HIV-1
# conditionContext: Human immunodeficiency virus 1; Table 5, Example 9 patient virus, mean; read-out: Anti-HIV-1 activity IC50 (μM) Mean (1)
# Method: RNA was isolated from 100 μl of plasma according to the method described by Boom, R. et al. (1990, supra), and was reverse transcribed with the GeneAmp reverse transcriptase kit (Perkin Elmer) as described by the manufacturer and using an HIV-1 specific downstream primer (OUT3: 5′-CATTGCTCTCCAATTACTGTGATATTTCTCATC-3′; SEQ ID NO: 1). […] During 7 to 10 days following the transfection, cells were monitored for the appearance of cytopathogenic effect (CPE). […]
readoutName: IC50 (µM)
Record the value in µM, omitting the unit from your answer.

Nc1ccn([C@H]2CC[C@@H](CO)O2)c(=O)n1	66.6
CC(=O)c1ccc(C)cc1NC(C(N)=O)c1c(Cl)cccc1Cl (stereo not shown) [loviride]	0.061

Request - read-out IC50 | tested on recombinant virus from patient viral RNA (Example 9) | molecule CC(C)=CCN1Cc2c(Cl)ccc3[nH]c(=S)n(c23)C[C@@H]1C
0.048
